- Test system: Hs-578T
- assay.procedure: NCI tumour cell line growth inhibition, 48 h
Activity calls are given as the source filed them. Cut-off read from the data, not from the text of the source: active = GI50 up to about 1.1 µM and inactive = higher.
Parameter GI50: see the listing below.

Qu. Find the recorded GI50 belonging to Cc1ccc(S(=O)(=O)N2CC(CCN)c3ccccc32)cc1 (stereo not given) and report it.
Ans. 5.62 µM (inactive)

Qu. And for O=[N+]([O-])c1ccc(C(Nc2ccccc2)P(c2ccccc2)c2ccccc2)cc1 (stereo not given) ?
Ans. > 100 µM (inactive)

Qu. N#Cc1ccc(NC(=O)C(CC(=O)OCc2ccccc2)NC(=O)OCc2ccccc2)cc1 (stereo not given) ?
Ans. > 10 µM (inactive)

Qu. Then this molecule: Cc1nc2c(nc1C)-c1[nH]c3c(c1C(=O)C2=O)CCCC3=O
Ans. 3.66 µM (inactive)

Qu. Same lookup for COc1nc2ccc(CNc3ccc(C(=O)NC(CCC(=O)O)C(=O)O)cc3)cc2nc1OC (stereo not given) , please.
Ans. > 100 µM (inactive)

---

- Tested on: MDA-MB-435
- assay.procedure: NCI tumour cell line growth inhibition, 48 h
Active and inactive are the calls of the source. Rule as the data show it: active = GI50 up to about 1.1 µM and inactive = higher.
measurement.type: GI50

Please review the following examples before continuing.
compound | GI50
CC(C)(Cc1ccccc1)NC1=NCCO1 | > 100 µM (inactive)
Cc1ccccc1OC(C)C(=O)NN1C(=O)CSC1c1ccccc1 (stereo not given) | 79.3 µM (inactive)
c1c[nH]c(C23C4C5C6C4C2C6C53)n1 (stereo not given) | > 100 µM (inactive)
CC[C@@H]1CC[C@@H]2[C@H](CC[C@]3(C)[C@@H](OC(C)=O)CC[C@@H]23)[C@H]1C(=O)OC | 20.9 µM (inactive)

Qu. Reported GI50 for Nc1nc2ccc(Sc3ccc4nc(N)[nH]c(=O)c4c3)cc2c(=O)[nH]1 : what is it?
Ans. > 100 µM (inactive)

---

- System: M14
- assay.procedure: NCI tumour cell line growth inhibition, 48 h
Calls of active or inactive are those of the source. No stated cut-off is given here; in the data, active = GI50 up to about 1.1 µM and inactive = higher.
The reply should name one outcome from T (active), F (inactive)

compound | assay.system | class
CC(=O)Nc1ccc(/N=N\c2c(O)c(S(=O)(=O)O)cc3cc(S(=O)(=O)O)ccc23)cc1 | M14 | F
CN[C@H](C)[C@@H](OC)c1ccccc1 | M14 | F
c1ccc2cc3n[se]nc3cc2c1 | M14 | F
CC(=O)Nc1ccc(OCC(O)CO)cc1 (stereo not given) | M14 | F
CCOC(=O)c1c(N2CCCC2)[nH]c(=O)c(C(c2ccco2)c2c(O)c(C(=O)OCC)c(N3CCCC3)[nH]c2=O)c1O | M14 | F
O=C1C(Cl)=C(N2C(=O)CCC2=O)C(=O)c2ccccc21 | M14 | F
CC/C(Cl)=N\OC(=O)Nc1ccc(F)c([N+](=O)[O-])c1 | M14 | F
COc1ccccc1/N=C1\SCCN1C(=S)Nc1ccc(S(=O)(=O)/N=C/N(C)C)cc1 | M14 | F
Cc1c(C(=O)Nc2ccc(Cl)cc2)nc(N)nc1-c1cccc(Cl)c1 | M14 | F
COc1cccc(-c2cc(O)c3cc(N4CCCC4)ccc3n2)c1 | M14 | T

Qu. Field: outcome | Entry: NC(Cc1c[nH]c2cc([N+](=O)[O-])ccc12)C(=O)O (stereo not given)
Ans. F

Qu. Try the compound C=Cc1ccc(C)[n+](C[Si](C)(C)O[Si](C)(C)C[n+]2cc(C=C)ccc2C)c1
Ans. F

Qu. // same read-out, input: N#CC(C(=N/O)/C(=N/O)C(C#N)c1ccc(Cl)cc1)c1ccc(Cl)cc1 (stereo not given)
Ans. F

Qu. One more compound: O=C(Nc1c(O)[nH]c(=S)[nH]c1=O)c1ccccc1
Ans. F

Qu. Further, for O=c1/c(=C/c2ccccn2)sc2nc3cc4c(cc3n12)OCCO4 ?
Ans. F

Where do the numbers come from? From ChEMBL document CHEMBL1201862.
